target: adenylyl cyclase; format: biochemical, mouse; conditions: TG4 heart membranes; read-out: EC50 of isoproterenol-stimulated adenylyl cyclase activity
recorded-endpoint: EC50

## Task Find the recorded EC50 belonging to CC(C)NCC(O)c1ccc(O)c(O)c1 (stereo not shown) [isoproterenol] and report it.
## Result 22 nM

====

biological target: adenylyl cyclase; type: biochemical, mouse; details: nontransgenic control heart membranes; read-out: EC50 of isoproterenol-stimulated adenylyl cyclase activity
recorded-endpoint: pEC50
Here pEC50 is given on a logarithmic scale as minus log10 of the concentration in mol/L.

## Task Find the recorded pEC50 belonging to CC(C)NCC(O)c1ccc(O)c(O)c1 (stereo not shown) and report it.
## Result 6.80
